tested on: SN12C renal; assay: NCI-60 one-dose screen, 48 h; details: 10 µM unless noted
Compounds without any hit were thinned out: in the full panel of roughly 83,000, 20% have a hit. The source made the active and inactive calls. How the source made its calls: active means growth percent below 10; inactive means the rest.
Respond only with the outcome that fits, drawn from active, inactive

Qu. Kindly provide the recorded test outcome for the following compound: `CC(C)(C)c1cc(-n2c(-c3ccc(Cl)cc3)nc3cc(C(=O)Nc4ccc(Cl)cc4)ccc32)n[nH]1`
Ans. inactive

Qu. Would you mind telling me which call this test gave `COC(=O)CCCCCn1c2ccccc2c2c3c(c4c5ccccc5[nH]c4c21)C(=O)N(O)C3=O` ?
Ans. inactive

Qu. Hi, sorry to bother you, what did the test record for `COc1cc(/C=C/c2cc(/C=C/c3ccc(O)c(OC)c3)n(-c3ccccc3)c(=O)n2)ccc1O` ?
Ans. inactive

Qu. What call does the record list for `COc1cc(/C=C/c2cc(/C=C/c3ccc(O)c(OC)c3)n(-c3ccc(Cl)cc3)c(=O)n2)ccc1O` ?
Ans. inactive

Qu. Record request — test call for `O=P(O)(c1ccccc1)c1ccccc1I`
Ans. inactive

Qu. Please indicate how the test categorized `Cc1csc(Nc2nc(-c3cccc(Br)c3)nc(C(Cl)(Cl)Cl)n2)n1` .
Ans. inactive

Qu. Per the records of this test, what outcome belongs to `CC1(C)CC[C@]2(C(=O)NCCNCCN)CC[C@]3(C)C(=CC[C@@H]4[C@@]5(C)CCC(=O)C(C)(C)[C@@H]5CC[C@]43C)[C@@H]2C1` ?
Ans. inactive

Qu. // param item: `CC(C)(C)CC(C)(C)c1ccc(OCCOCC[N+](C)(C)CC(=O)[O-])cc1` ; yields the recorded call
Ans. inactive

Qu. Name the outcome recorded for `Cc1ccc(/C=C(\C#N)c2cc3ccccc3n2C)cc1` in the assay.
Ans. inactive

Qu. For this compound, state the assay outcome: `CN(C)c1ccc(C(=O)c2ccc(N(C)C)c(N)c2)cc1N`
Ans. inactive

Qu. Hi, do you know how `CC(=O)O[C@H]1CC[C@]2(C)[C@H]3CC=C4[C@@H]5[C@H](C)[C@@H](C)CC[C@]5(C(=O)NCCNCCNCCN)CC[C@@]4(C)[C@]3(C)CC[C@H]2C1(C)C` came out in this test?
Ans. inactive

Qu. Please state the recorded outcome for this compound: O=C1CN(c2ccccc2)C(=O)C1C(=O)Nc1ccc(Cl)c(Cl)c1 (configuration not stated)
Ans. inactive

Qu. Write down the call the test reported for this compound. Item: `Brc1ccc(Cn2nnnc2-c2ccn(-c3ccccc3)n2)cc1`
Ans. inactive

Qu. // return assay outcome for `CC(C)C[C@@H](NC(=O)[C@@H](Cc1ccccc1)NC(=O)c1cnccn1)B1O[C@H]2[C@H](O)[C@@H](C(=O)NCCCC[C@@H]3NC(=O)[C@@H](Cc4ccccc4)NC(=O)[C@H](CC(=O)O)NC(=O)CNC(=O)[C@H](CCCN=C(N)N)NC3=O)O[C@@H](CN)[C@H]2O1`
Ans. active

Qu. # fetch the recorded call for `O=C1/C(=C\c2ccco2)SC(=S)N1CCc1ccc(O)cc1` here
Ans. inactive

Qu. What did this assay record as the result for `Cc1cc(C)nc(NC(N)=NCCc2ccccc2)n1` ?
Ans. inactive

Qu. Please share the test call associated with `CCCCC[C@H]1CC=C2C(=O)C(Cl)=C[C@@H]2CC=CCCCC(=O)O[C@@H](CCCCC)CC=C2C(=O)C(Cl)=C[C@@H]2CC=CCCCC(=O)O[C@@H](CCCCC)CC=C2C(=O)C(Cl)=C[C@@H]2CC=CCCCC(=O)O1` .
Ans. inactive

---

System: U251 CNS
Assay: NCI-60 one-dose screen, 48 h (100 = growth as untreated, 0 = no growth, -100 = all killed)
Conditions: 10 µM unless noted
Procedure: Growth inhibition of the U251 human tumor cell line is measured as a screen for anti-cancer activity. Cells are grown in 96 well plates and exposed to the test compound for 48 hours. Compounds are tested at a single concentration, which is 10^-5 M for most compounds. The reported endpoint is percent growth (GI% or GIPRCNT), where numbers from 0 - 100% represent growth inhibition, and numbers from -100% - 0 represent cell death. For example, a value of 40 represents 60% growth inhibition. […]
About 83,000 compounds went through this panel and 20% of them were active in at least one assay; those are over-represented in the sample as a whole.
Property label: growth (%)
Write the value in % as a bare number.

Qu. What value of measured growth is listed for `CCOc1ccc(NC(=O)c2ccccc2-c2ccccc2C(=O)O)cc1` ?
Ans. 112

Qu. Field request: growth | item: `Cc1ccc2c(c1)c1nc3cc(C)c(C)cc3nc1n2CCN(C)C`
Ans. 23.7

Qu. Query: growth; subject: O=C1C=C(C(O)c2ccc(O)cc2)C(=O)c2ccccc21 (centres undefined)
Ans. 95.1

Qu. For `Cc1[c-]onc1C.Cc1[c-]onc1C.[Ag].[Ag].[NH-]S(=O)(=O)c1ccc(N=Nc2cc(N=Nc3ccc(S([NH-])(=O)=O)cc3)c3c(NC(=O)C(Cl)Cl)cccc3c2OC(=O)C(Cl)Cl)cc1` , what is its reported growth?
Ans. 82.7

---

system: IGROV1 ovarian; assay: NCI-60 one-dose screen, 48 h (100 = growth as untreated, 0 = no growth, -100 = all killed); conditions: 10 µM unless noted
This is part of a sample that, as a whole, favours compounds with a hit. Of some 83,000 tested, about 20% had one in any assay. The source made the active and inactive calls. How the source made its calls: active means growth percent below 10; inactive means the rest.
Property label: growth

Qu. Requested read-out: growth. Entry: `COc1cccc(-c2nn(-c3ccccc3)cc2-c2ccnc(NCCNS(=O)(=O)c3ccc(C(F)(F)F)cc3)c2)c1`
Ans. 28% (inactive)

Qu. Given the compound NC(=O)[C@@H]1CC2CCC1C2 (some centres undefined) , what is its reported growth?
Ans. 110% (inactive)

Qu. Returns the measured growth for the input compound. Input: CCC(c1ccc(OC)cc1)C(CC)c1ccc(O)c(CN2CCCCC2)c1 (centres undefined)
Ans. 69.6% (inactive)

Qu. Fill in: growth of Cc1c(C)c2c(c(C)c1NC(=O)CCCCCCC(=O)O)CCC(C)(CCCC(C)CCCC(C)CCCC(C)C)O2 (centres undefined) is ___
Ans. 89.8% (inactive)

Qu. What does the record list as growth for `C/C(=C(/c1ccccc1)c1ccc(N2C(=O)c3cccc4c(NCc5ccccc5)ccc(c34)C2=O)cc1)c1ccccc1` ?
Ans. 94.8% (inactive)

Qu. Fill in: growth of `CN1CCN(c2ccc3nc(-c4[nH]ncc4Nc4ncnc5[nH]ccc45)[nH]c3c2)CC1` is ___
Ans. 0.386% (active)

Qu. Requested field: growth. Item: CC(=O)O[C@H]1CC[C@@]2(C)[C@@H](CC[C@@H]3[C@@H]2CC(=O)[C@@]2(C)[C@H]3C[C@@H](C3CCCC3=O)[C@@H]2C(C)=O)C1 (some centres undefined)
Ans. 98.1% (inactive)

Qu. Using the record for Cc1ccsc1-c1ccc2c(c1)COC2(CCCN(C)C)c1ccc(F)cc1 (centres undefined) , report its growth.
Ans. 26.6% (inactive)

Qu. What measured growth goes with `CC(C)(C)CC(C)(C)c1ccc(OCCOCC[N+](C)(C)CC(=O)[O-])cc1` ?
Ans. 100% (inactive)

---

system: MALME-3M melanoma; assay: NCI-60 one-dose screen, 48 h; details: 10 µM unless noted
The panel holds about 83,000 compounds, 20% with a hit somewhere; the sample as a whole holds those more often. The source made the active and inactive calls. How the source made its calls: active means growth percent below 10; inactive means the rest.
Give one outcome, nothing more. List: true = active, false = inactive

Qu. Returns: the outcome recorded for `NCCn1cc(-c2nc(-c3c[nH]c4ncccc34)cs2)c2ccccc21` in this assay.
Ans. false

Qu. What was the test verdict on `CC(C)(C)CC(C)(C)c1ccc(OCCOCC[N+](C)(C)CC(=O)[O-])cc1` ?
Ans. false

Qu. GET /call?item= `CC/C=C\C[C@H]1CC=C2C(=O)C=C[C@@H]2CC=CCCCC(=O)O[C@@H](CCCCC)CC=C2C(=O)C=C[C@@H]2CC=CCCCC(=O)O[C@@H](CCCCC)CC=C2C(=O)C=C[C@@H]2CC=CCCCC(=O)O[C@@H](CCCCC)CC=C2C(=O)C=C[C@@H]2CC=CCCCC(=O)O1` returns the recorded outcome of this test.
Ans. false

Qu. Hi team, can someone confirm the assay call for N#CC1=C(N)Oc2c(c(N)nn2-c2ccccc2)C1c1ccc(Cl)cc1Cl (stereo not drawn) ?
Ans. false

Qu. GET /call?item= `CC1(C)CC[C@]2(C(=O)Nc3ccccn3)CC[C@]3(C)C(=CC[C@@H]4[C@@]5(C)C/C(=C/c6ccncc6)C(=O)C(C)(C)[C@@H]5CC[C@]43C)[C@@H]2C1` returns the recorded outcome of this test.
Ans. true

Qu. Check the results log: what was the call for `N#Cc1cnc2cc(OC[C@@H](O)CO)c(NC(=O)C3CCCC3)cc2c1Nc1ccc(OCc2cccc(F)c2)c(Cl)c1` ?
Ans. true

Qu. # fetch the recorded call for `Cc1ccc(N(CC(=O)Nc2ccc(S(=O)(=O)N3CCC(N4CCCC4)CC3)cc2)S(=O)(=O)c2ccc(Cl)cc2)cc1` here
Ans. true

Qu. Check the results log: what was the call for `C[C@H]1[C@@H]2[C@H]3CC[C@@H]4[C@@]5(C)Cc6c([nH]c7ccccc67)C(C)(C)[C@@H]5CC[C@@]4(C)[C@]3(C)CC[C@]23CO[C@]1(C)[C@@H](C(=O)/C=C/c1ccccn1)C3` ?
Ans. false

Qu. What call does the record list for `CC[C@H](CC[C@@H](C)[C@H]1CC[C@H]2[C@@H]3/C(=C/c4cccnc4)C(=O)C4=CC(=O)CC[C@]4(C)[C@H]3CC[C@]12C)C(C)C` ?
Ans. false

Qu. So what was the verdict on OCC1OC(n2cnc3c(Cl)ncnc32)CC1O (stereo not drawn) in this test?
Ans. false

Qu. Lab log entry: `Nc1nc2c3ccncc3cc(-c3cccc(Cl)c3)c2c2cnccc12` — outcome as called in the assay?
Ans. false

Qu. Recorded test outcome, item CC1(c2ccccc2)OC1C(=O)O (stereo not drawn)
Ans. false

Qu. Tell me the recorded outcome of this test for CC(C)(C)c1[nH]nc2c1C(c1cc3ccccc3[nH]c1=O)Nc1cc(C(=O)OCc3ccccc3)ccc1N2 (stereo not drawn) .
Ans. false

Qu. What is the recorded call for this molecule in the test? `Cc1cc(Cl)c2c(N(C)C)cccc2n1`
Ans. false

Qu. Any idea what this test logged for `COc1cccc(-c2nn(-c3ccccc3)cc2-c2ccnc(NCCCN)c2)c1` ?
Ans. false

Qu. Per the assay record, what outcome was assigned to `CC(=O)Cc1nsc(NC(=O)c2ccoc2COc2ccccc2)n1` ?
Ans. false

Qu. State the result this test recorded for `Fc1ccc2nc(-c3cc(-c4ccc5c(c4)OCO5)n[nH]3)[nH]c2c1` .
Ans. false

Qu. I'd appreciate the recorded outcome for `CCNCCCn1c2c(c3ccc([N+](=O)[O-])cc3c1=O)C(=O)c1cc(OC)cnc1-2` from this test.
Ans. true
